condition_set: buffer; pH 7.4; 200.0 µM
Parameter: log10(solubility kinetic). Scope: all listed entries.
measurement_name: log10(solubility kinetic) (log10 of the value in mg/mL)

>>> observed_result("O=C(Nc1cccc(S(=O)(=O)N2CCOCC2)c1)c1cc(=O)[nH]c2ccccc12")
-2.00
>>> observed_result("COc1ccccc1CCC(=O)Nc1nccs1")
-2.07
>>> observed_result("CCOc1ccc(NC(=S)N(CCc2ccncc2)C(C)C)cc1")
-1.31
>>> observed_result("COc1ccccc1Nc1nc(N)nc(CN2CC(C)CC(C)C2)n1 (stereo unspecified)")
-1.85
>>> observed_result("CCNC(=O)c1ccccc1-c1nc(-c2ccccc2)no1")
-1.45
>>> observed_result("N#Cc1cccc(NC(=O)CN2CCN(Cc3ccccc3)CC2)c1")
-1.30
>>> observed_result("S=C(NCCc1ccc(Cl)cc1)NC1CCCCC1")
-2.40
>>> observed_result("CN1CCN(S(=O)(=O)c2ccccc2)C(c2ccccc2)C1 (stereo unspecified)")
-1.35
>>> observed_result("O=C(COC(=O)c1ccccc1F)NCc1ccc2c(c1)OCO2")
-1.74
>>> observed_result("COc1ccc(N2CCN(CC(=O)NC(=O)NC(C)(C)C)CC2)cc1")
-1.29
>>> observed_result("O=C(/C=C/c1ccco1)Oc1cccc2cccnc12")
-1.57
>>> observed_result("COc1ccc(C(CC(=O)N2CCCC2)c2ccc(F)cc2)cc1 (stereo unspecified)")
-1.35
